Source listed as patent US9556165B2.

System: strain 20
Assay Procedure: MIC determination, broth microdilution (CLSI)
Type: cell-based
Measured Property: strain 20 MIC (µg/mL)
Note: unit µg/mL is implicit; provide only the numeric part.

Some solved entries appear below for comparison.
CC1(C)[C@H](NC(=O)/C(=N\OC(COc2ccc(C(=N)N)cc2)C(=O)O)c2csc(N)n2)C(=O)N1OS(=O)(=O)O (mixture of isomers) [Example 27B]	2
CC1(C)[C@H](NC(=O)/C(=N\OC(COc2ccc(C(=N)N)c(O)c2)C(=O)O)c2csc(N)n2)C(=O)N1OS(=O)(=O)O (mixture of isomers) [Example 34B]	4

Switching to the query record.
Need strain 20 MIC of CC1(C)[C@H](NC(=O)/C(=N\OC(COc2ccc(C(=N)N)cc2)C(=O)O)c2csc(N)n2)C(=O)N1OS(=O)(=O)O (mixture of isomers) [Example 27A] , thanks.
0.25
